B1: H2-Kb / E9 (parent)
chain 1: QQKVQQSPESLTVSEGAMASLNCTFSDRSSDNFRWYRQHSGKGLEVLVSIFSDGEKEEGSFTAHLNRASLHVFLHIREPQPSDSALYLCAVSRSSGSWQLIFGSGTQLTVMP
chain 2: NSGVVQSPRYIIKGKGERSILKCIPISGHLSVAWYQQTQGQELKFFIQHYDKMERDKGNLPSRFSVQQFDDYHSEMNMSALELEDSAVYFCASSRDSNNQAPLFGEGTRLSVL
chain 3: not shown
chain 4: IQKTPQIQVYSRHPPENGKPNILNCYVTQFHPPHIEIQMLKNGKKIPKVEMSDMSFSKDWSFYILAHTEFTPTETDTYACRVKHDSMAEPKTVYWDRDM
chain 5: SIINFEKL

Variants of: B1
run-description: % of reporter cells activated (NFAT-GFP), raw; note: test concentration or dose not given here
run-conditions: with E9; scale: % of reporter cells activated
endpoint-name: ratio to parent

Example entries and their recorded answers appear below.
> print(dat)
           var    endpoint.name  value
1  chain 5 K7Y  ratio to parent   1.26
2  chain 5 S1H  ratio to parent   2.01

P = chain 5 N4G
Q = chain 5 L8T
Ask | Look at P and Q . Which one has the lower recorded ratio to parent number? Please identify the chosen entry by its label.
Reply | Q
(Q: 0.623, P: 1.35)

I = chain 5 F5P
II = chain 5 I3W
III = chain 5 K7R
Ask | Order field: ratio to parent | Direction: descending (largest first) Would you mind listing the labels in the order requested?
Reply | I, II, III

a = chain 5 E6V
b = chain 5 N4W
c = chain 5 E6C
Ask | Arrange items by their ratio to parent values in increasing order. Would you mind listing the labels in the order requested?
Reply | c, b, a
